Entries and their log10(Ki)
experimentalTarget: Tryptase (Homo sapiens, UniProt Q9BZJ3+Q15661+Q9NRR2)
methodSummary: Inhibition of mast cell tryptase
Assay type: protein assay
resultType: log10(Ki) (log10 of the value in µM)

molecule	experimentalTarget	log10(Ki)
Cn1c(C(F)(F)c2nc3c(F)cc(F)cc3[nH]2)nc2ccc(C(=O)NC(O)COc3ccc(F)cc3)cc21 (stereo unspecified)	Tryptase (Homo sapiens, UniProt Q9BZJ3+Q15661+Q9NRR2)	-1.62
Cn1c(C(F)(F)c2nc3c(F)cc(F)cc3[nH]2)nc2ccc(C(N)=O)cc21	Tryptase (Homo sapiens, UniProt Q9BZJ3+Q15661+Q9NRR2)	0.43
Cn1c(C(F)(F)c2nc3c(F)cc(F)cc3[nH]2)nc2ccc(C(=O)NCCOc3ccc(F)cc3)cc21	Tryptase (Homo sapiens, UniProt Q9BZJ3+Q15661+Q9NRR2)	-0.52
Cn1c(C(F)(F)c2nc3c(F)cc(F)c(O)c3[nH]2)nc2ccc(C(=O)NCCOc3ccc(F)cc3)cc21	Tryptase (Homo sapiens, UniProt Q9BZJ3+Q15661+Q9NRR2)	-1.47
Cn1c(C(F)(F)c2nc3c(F)cc(F)cc3[nH]2)nc2ccc(C(=O)NCCO)cc21	Tryptase (Homo sapiens, UniProt Q9BZJ3+Q15661+Q9NRR2)	0.85
Cn1c(C(F)(F)c2nc3c(F)c(O)c(F)cc3[nH]2)nc2ccc(C(=O)NCCOc3ccc(F)cc3)cc21	Tryptase (Homo sapiens, UniProt Q9BZJ3+Q15661+Q9NRR2)	0.15

* * *

methodSummary: Stability in dog liver microsome after 3 hrs
Format: ADME, Canis lupus familiaris
cond: liver microsomes, read-out: Stability

structureNotation	remaining at 3 h
Cn1c(C(F)(F)c2nc3c(F)cc(F)cc3[nH]2)nc2ccc(C(=O)NCCOc3ccc(F)cc3)cc21	< 10%
